Answer each item with its documented IC50.
Test Description: Inhibitory activity against Calcineurin (CaN phosphatase)
Numbers only, in nM.

Compound | IC50, nM
CC[C@@H]1/C=C(\C)C[C@H](C)C[C@H](OC)[C@H]2O[C@@](O)(C(=O)C(=O)N3CCCC[C@H]3C(=O)O[C@H](/C(C)=C/C3CC[C@@H](OC[C@H](O)c4cc(C)cc(C)c4)[C@H](OC)C3)[C@H](C)[C@H](O)CC1=O)[C@H](C)C[C@@H]2OC (stereo partly drawn) | 8.7
CC[C@@H]1/C=C(\C)C[C@H](C)C[C@H](OC)[C@H]2O[C@@](O)(C(=O)C(=O)N3CCCC[C@H]3C(=O)O[C@H](/C(C)=C/C3CC[C@@H](OC[C@@H](O)c4ccc5ccccc5c4)[C@H](OC)C3)[C@H](C)[C@H](O)CC1=O)[C@H](C)C[C@@H]2OC (stereo partly drawn) | 2.8

Lookup result for CC[C@@H]1/C=C(\C)C[C@H](C)C[C@H](OC)[C@H]2O[C@@](O)(C(=O)C(=O)N3CCCC[C@H]3C(=O)O[C@H](/C(C)=C/C3CC[C@@H](OC[C@@H](O)c4cc5ccccc5s4)[C@H](OC)C3)[C@H](C)[C@H](O)CC1=O)[C@H](C)C[C@@H]2OC (stereo partly drawn) ; measured IC50: 4
